Provenance of the data: patent US20150258192A1

Give % activity for every item shown.
- assayedTarget: TrkB(h) (Homo sapiens, UniProt Q16620)
- assayName: Kinase Profiling Assay
- Format: biochemical
- condition: peptide 100 μM
No end group written: not given here.
One number for each entry, in %.

Known % activity results, listed for orientation:
Q: Can you look up the measured % activity of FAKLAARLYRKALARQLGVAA [MMI-0300] for me?
Ans: 5

Q: Quick one: % activity of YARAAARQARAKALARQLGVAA [MMI-0100] ?
Ans: 4

Q: % activity lookup needed for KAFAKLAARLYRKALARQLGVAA [MMI-0400] , thanks.
Ans: 8

Q: Can you share its % activity? I mean this sequence: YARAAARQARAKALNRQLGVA (Mammal) [MMI-0200]
Ans: 7

***
Q: Fill blank: measured % activity of the sequence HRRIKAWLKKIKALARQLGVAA (Mammal) [MMI-0500] is ____.
Ans: 12

====

- assayedTarget: ZIPK(h) (Homo sapiens)
- Sequence (O43293 whole entry): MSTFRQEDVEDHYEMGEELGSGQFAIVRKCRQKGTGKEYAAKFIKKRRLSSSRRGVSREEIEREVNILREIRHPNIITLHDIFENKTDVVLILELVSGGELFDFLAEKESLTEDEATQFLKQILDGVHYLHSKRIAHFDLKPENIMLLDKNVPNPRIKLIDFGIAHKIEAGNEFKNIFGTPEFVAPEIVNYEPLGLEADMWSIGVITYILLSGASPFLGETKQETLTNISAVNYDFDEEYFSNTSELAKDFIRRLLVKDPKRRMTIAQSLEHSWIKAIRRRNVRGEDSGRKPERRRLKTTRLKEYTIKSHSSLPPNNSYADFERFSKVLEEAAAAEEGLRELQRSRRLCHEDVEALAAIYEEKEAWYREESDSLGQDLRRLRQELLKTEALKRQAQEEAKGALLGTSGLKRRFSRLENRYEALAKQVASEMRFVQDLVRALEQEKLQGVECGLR
- assayName: Kinase Profiling Assay
- Type: biochemical
- condition: peptide 100 μM
Assign % activity to each entry below.
Answers are plain numbers, in %.

// known answers, use as guide
Q: Data request, read-out % activity, for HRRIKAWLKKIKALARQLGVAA (Mammal) [MMI-0500]
Ans: 1

Q: Which % activity is reported for this sequence? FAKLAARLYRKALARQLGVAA [MMI-0300]
Ans: 28

Q: Recorded % activity for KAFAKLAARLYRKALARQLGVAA [MMI-0400] , please?
Ans: 13

Please turn your attention to the following entry.
Q: Requested field: % activity. Item: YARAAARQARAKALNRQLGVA (Mammal) [MMI-0200]
Ans: 67

====

- assayedTarget: MST3(h) (Homo sapiens)
- Construct: purchased Millipore
- Sequence (Q9Y6E0 whole entry): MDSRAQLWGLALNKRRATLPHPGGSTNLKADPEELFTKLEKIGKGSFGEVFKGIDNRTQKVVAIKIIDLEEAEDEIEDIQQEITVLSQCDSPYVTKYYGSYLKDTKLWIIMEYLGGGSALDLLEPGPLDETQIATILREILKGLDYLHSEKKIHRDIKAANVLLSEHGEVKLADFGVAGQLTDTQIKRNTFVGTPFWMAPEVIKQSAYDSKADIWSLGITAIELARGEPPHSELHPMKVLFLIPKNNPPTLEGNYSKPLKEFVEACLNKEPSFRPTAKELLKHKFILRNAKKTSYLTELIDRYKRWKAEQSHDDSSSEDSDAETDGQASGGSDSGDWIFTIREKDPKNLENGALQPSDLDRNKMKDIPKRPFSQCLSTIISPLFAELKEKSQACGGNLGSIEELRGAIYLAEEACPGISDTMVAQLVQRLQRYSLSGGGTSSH
- assayName: Kinase Profiling Assay
- Format: biochemical
- condition: peptide 100 μM
Give % activity for every item shown.
One number for each entry, in %.

Q: % activity of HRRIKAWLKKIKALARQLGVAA (Mammal) [MMI-0500] on MST3(h) (Homo sapiens)?
Ans: 4

Q: What measured % activity is associated with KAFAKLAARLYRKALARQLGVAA [MMI-0400] on MST3(h) (Homo sapiens)?
Ans: 36

Could I get % activity for every one of these entries?
1. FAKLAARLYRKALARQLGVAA [MMI-0300]
2. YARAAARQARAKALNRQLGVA (Mammal) [MMI-0200]

Ans:
45
95

====

- assayedTarget: EphA7(h) (Homo sapiens)
- Sequence (Q15375 28-998): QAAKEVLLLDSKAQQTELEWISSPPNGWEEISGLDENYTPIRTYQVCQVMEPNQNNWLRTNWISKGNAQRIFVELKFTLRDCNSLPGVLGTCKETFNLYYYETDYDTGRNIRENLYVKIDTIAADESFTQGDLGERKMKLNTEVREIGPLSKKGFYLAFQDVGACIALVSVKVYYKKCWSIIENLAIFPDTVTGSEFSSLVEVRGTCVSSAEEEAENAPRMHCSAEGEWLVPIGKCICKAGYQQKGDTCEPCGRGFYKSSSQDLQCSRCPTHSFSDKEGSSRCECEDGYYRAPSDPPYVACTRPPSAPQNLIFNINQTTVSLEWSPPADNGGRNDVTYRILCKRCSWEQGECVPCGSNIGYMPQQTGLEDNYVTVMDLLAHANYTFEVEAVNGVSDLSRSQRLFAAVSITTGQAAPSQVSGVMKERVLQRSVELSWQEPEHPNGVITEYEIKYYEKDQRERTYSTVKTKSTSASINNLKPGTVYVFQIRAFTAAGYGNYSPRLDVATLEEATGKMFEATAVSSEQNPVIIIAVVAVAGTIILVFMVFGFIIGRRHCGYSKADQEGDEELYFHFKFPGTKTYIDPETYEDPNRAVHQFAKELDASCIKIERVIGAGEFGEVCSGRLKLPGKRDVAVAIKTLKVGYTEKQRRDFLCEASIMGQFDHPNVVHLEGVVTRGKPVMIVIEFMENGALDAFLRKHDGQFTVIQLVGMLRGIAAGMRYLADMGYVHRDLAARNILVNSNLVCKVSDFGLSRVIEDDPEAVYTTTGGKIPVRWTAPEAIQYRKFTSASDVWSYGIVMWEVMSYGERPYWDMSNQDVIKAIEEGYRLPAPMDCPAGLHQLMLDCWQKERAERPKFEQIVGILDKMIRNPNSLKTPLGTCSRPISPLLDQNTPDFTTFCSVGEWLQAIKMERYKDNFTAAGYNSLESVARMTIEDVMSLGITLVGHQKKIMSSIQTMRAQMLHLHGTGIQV
- assayName: Kinase Profiling Assay
- Type: biochemical
- condition: peptide 100 μM
No end group written: not given here.
readoutName: % activity (%)
Answers are plain numbers, in %.

Examples from the recorded data:
Q: Given the entry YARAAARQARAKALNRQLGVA (Mammal) [MMI-0200] , report its measured % activity.
Ans: 220

Q: Give the measured % activity of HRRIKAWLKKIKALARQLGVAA (Mammal) [MMI-0500] .
Ans: 189

Q: Need % activity, item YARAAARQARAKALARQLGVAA [MMI-0100]
Ans: 193

Q: # input sequence: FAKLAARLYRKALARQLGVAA [MMI-0300] ; wanted: its % activity
Ans: 159

Okay, next one:
Q: Quick one: % activity of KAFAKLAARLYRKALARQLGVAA [MMI-0400] ?
Ans: 222

====

- assayedTarget: cKit(D816V)(h) (Homo sapiens, UniProt P10721, D816V)
- assayName: Kinase Profiling Assay
- Format: biochemical
- condition: peptide 100 μM
For each entry below, report its % activity value.
Answers are plain numbers, in %.

Examples with their reported % activity follow.
Q: Could you tell me which % activity is on file for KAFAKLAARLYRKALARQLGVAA [MMI-0400] ?
Ans: 35

Q: State the recorded % activity for this entry: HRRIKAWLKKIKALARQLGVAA (Mammal) [MMI-0500]
Ans: 30

Q: State the recorded % activity for this entry: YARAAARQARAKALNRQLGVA (Mammal) [MMI-0200]
Ans: 118

Attention now shifts to the item below.
Q: Reported % activity for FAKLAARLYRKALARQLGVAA [MMI-0300] : what is it?
Ans: 60

====

- assayedTarget: EGFR(T790M, L858R)(h) (Homo sapiens, UniProt P00533, L858R/T790M)
- assayName: Kinase Profiling Assay
- Assay type: biochemical
- condition: peptide 100 μM
readoutName: % activity (%)
Give bare numbers, in %.

Q: Return % activity measured with EGFR(T790M, L858R)(h) (Homo sapiens, UniProt P00533, L858R/T790M) given this sequence: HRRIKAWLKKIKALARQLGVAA (Mammal) [MMI-0500]
Ans: 53

Q: Could you share what % activity was measured for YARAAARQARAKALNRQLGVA (Mammal) [MMI-0200] , tested on EGFR(T790M, L858R)(h) (Homo sapiens, UniProt P00533, L858R/T790M)?
Ans: 108

Q: For the record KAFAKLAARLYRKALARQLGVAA [MMI-0400] , what value of % activity is listed for EGFR(T790M, L858R)(h) (Homo sapiens, UniProt P00533, L858R/T790M)?
Ans: 78

Please turn your attention to the following entry.
Q: API: value(readout=% activity, system=EGFR(T790M, L858R)(h) (Homo sapiens, UniProt P00533, L858R/T790M)) for record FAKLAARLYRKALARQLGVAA [MMI-0300]
Ans: 85

====

- assayedTarget: Ros(h) (Homo sapiens, UniProt P08922)
- Sequence (P08922 28-2347): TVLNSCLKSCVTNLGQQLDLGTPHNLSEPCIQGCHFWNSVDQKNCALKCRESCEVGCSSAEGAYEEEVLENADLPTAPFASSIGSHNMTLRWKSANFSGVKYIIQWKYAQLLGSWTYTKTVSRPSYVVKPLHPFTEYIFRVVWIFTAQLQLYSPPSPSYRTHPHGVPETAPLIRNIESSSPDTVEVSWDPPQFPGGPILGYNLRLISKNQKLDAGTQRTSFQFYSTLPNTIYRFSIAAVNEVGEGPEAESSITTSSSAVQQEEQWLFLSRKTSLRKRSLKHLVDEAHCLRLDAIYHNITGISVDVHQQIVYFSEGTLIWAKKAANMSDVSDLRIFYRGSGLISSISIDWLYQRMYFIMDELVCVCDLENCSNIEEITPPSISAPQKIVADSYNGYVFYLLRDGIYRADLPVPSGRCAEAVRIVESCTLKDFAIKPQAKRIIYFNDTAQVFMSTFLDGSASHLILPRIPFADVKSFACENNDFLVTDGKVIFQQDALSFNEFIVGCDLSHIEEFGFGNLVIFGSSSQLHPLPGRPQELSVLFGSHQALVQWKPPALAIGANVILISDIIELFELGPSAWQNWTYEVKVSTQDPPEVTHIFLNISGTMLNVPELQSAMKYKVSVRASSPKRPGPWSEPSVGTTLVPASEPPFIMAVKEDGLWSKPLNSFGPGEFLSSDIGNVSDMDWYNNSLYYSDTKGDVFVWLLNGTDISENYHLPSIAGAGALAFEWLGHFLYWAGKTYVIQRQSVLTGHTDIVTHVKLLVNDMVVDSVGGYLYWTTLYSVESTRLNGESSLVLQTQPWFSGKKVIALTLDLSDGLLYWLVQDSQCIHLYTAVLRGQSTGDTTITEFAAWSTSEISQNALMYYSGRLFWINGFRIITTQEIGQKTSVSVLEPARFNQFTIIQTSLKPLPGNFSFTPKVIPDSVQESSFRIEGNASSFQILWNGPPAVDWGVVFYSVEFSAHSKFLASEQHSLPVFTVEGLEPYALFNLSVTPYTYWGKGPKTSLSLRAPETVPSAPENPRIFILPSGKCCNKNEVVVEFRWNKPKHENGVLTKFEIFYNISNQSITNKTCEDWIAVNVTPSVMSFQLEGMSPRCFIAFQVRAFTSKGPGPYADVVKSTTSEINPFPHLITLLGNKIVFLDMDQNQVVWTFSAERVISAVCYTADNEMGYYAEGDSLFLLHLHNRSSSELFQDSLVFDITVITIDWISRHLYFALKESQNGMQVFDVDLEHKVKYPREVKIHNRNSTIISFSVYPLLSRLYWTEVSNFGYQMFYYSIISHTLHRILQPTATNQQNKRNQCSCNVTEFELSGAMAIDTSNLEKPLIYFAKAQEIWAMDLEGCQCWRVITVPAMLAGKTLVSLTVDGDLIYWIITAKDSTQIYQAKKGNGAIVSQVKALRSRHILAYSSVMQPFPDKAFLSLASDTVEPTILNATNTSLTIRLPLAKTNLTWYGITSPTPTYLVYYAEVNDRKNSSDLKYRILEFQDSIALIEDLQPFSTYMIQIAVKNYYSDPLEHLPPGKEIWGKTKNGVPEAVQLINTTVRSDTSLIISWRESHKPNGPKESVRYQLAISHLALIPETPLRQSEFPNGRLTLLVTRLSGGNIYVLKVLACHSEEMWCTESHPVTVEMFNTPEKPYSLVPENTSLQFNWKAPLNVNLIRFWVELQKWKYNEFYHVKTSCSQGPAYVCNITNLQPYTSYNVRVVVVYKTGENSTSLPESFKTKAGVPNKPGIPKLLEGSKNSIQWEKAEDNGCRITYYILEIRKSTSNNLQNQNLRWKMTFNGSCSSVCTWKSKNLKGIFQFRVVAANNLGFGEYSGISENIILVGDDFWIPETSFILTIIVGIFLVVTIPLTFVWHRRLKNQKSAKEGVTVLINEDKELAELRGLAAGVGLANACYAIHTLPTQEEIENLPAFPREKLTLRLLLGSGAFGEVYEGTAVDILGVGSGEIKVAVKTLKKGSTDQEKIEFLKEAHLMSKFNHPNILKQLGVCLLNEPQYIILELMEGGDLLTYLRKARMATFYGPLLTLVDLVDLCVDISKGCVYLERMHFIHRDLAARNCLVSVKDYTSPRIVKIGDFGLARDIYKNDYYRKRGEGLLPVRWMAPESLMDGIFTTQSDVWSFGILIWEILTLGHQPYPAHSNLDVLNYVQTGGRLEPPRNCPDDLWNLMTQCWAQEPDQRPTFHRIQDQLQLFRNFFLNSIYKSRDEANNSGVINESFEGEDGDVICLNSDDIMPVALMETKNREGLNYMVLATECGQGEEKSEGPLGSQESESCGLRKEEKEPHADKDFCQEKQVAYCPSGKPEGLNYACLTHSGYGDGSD
- assayName: Kinase Profiling Assay
- Format: biochemical
- condition: peptide 100 μM
readoutName: % activity
Please answer in the form of a number followed by its unit of measurement.

// below: answered sequences
Q: For the record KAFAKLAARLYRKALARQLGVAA [MMI-0400] , what value of % activity is listed for Ros(h) (Homo sapiens, UniProt P08922)?
Ans: 99%

Q: Give Ros(h) (Homo sapiens, UniProt P08922) % activity for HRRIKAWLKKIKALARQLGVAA (Mammal) [MMI-0500]
Ans: 150%

Q: Provide the documented % activity with Ros(h) (Homo sapiens, UniProt P08922) as the system for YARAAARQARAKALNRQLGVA (Mammal) [MMI-0200]
Ans: 86%

New cases:
Q: Please state recorded % activity (tested on Ros(h) (Homo sapiens, UniProt P08922)) of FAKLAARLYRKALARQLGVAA [MMI-0300]
Ans: 95%

====

- assayedTarget: PKCθ(h) (Homo sapiens)
- Sequence (Q04759 whole entry): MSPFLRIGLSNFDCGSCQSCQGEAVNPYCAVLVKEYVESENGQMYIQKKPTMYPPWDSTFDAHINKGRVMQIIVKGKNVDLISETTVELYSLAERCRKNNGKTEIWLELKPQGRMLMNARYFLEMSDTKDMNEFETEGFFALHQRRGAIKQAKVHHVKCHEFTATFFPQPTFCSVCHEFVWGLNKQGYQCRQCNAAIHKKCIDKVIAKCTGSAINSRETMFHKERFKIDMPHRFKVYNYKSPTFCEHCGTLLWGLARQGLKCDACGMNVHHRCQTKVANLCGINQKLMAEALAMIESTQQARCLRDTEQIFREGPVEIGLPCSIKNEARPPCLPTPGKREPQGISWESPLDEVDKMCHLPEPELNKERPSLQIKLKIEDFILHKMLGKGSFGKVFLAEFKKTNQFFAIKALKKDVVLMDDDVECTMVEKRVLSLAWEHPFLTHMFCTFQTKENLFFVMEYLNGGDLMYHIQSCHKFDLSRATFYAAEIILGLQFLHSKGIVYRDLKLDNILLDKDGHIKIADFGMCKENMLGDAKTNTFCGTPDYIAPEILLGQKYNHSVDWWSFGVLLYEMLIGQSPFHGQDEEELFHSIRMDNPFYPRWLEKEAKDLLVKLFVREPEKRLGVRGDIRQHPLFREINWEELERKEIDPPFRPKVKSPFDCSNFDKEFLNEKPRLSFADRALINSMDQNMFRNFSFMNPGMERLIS
- assayName: Kinase Profiling Assay
- Type: biochemical
- condition: peptide 100 μM
For each record, write down the corresponding % activity.
One number for each entry, in %.

A selection of reference data follows.
Q: // % activity lookup, key: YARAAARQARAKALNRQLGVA (Mammal) [MMI-0200]
Ans: 101

Q: Query: % activity; subject: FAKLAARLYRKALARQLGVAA [MMI-0300]
Ans: 88

Q: Tell me the measured % activity of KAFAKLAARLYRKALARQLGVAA [MMI-0400] , please.
Ans: 76

// moving on: another record for % activity
Q: Using the record for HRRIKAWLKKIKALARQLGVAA (Mammal) [MMI-0500] , report its % activity.
Ans: 62

====

- assayedTarget: TSSK2(h) (Homo sapiens)
- Sequence (Q96PF2 1-358): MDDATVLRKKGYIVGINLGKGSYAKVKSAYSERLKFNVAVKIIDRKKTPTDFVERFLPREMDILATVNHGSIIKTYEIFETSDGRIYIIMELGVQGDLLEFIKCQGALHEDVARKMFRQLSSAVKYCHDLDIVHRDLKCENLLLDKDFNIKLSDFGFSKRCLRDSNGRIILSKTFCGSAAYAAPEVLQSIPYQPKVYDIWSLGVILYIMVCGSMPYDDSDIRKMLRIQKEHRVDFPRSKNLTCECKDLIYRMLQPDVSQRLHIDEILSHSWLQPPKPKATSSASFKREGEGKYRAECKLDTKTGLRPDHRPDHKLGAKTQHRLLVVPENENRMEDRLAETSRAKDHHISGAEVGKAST
- assayName: Kinase Profiling Assay
- Format: biochemical
- condition: peptide 100 μM
- Method: Every kinase activity measurement was conducted in duplicate. Specifically, in these assays, a positively charged substrate is phosphorylated with a radiolabeled phosphate group from an ATP if the kinase is not inhibited by an inhibitor peptide. The positively charged substrate then is attracted to a negatively charged filter membrane, quantified with a scintillation counter, and compared to a 100% activity control. […]
readoutName: % activity
Write the numeric value and follow it with the unit.

In the examples that follow, each entry is paired with its recorded % activity.
Q: Dear colleague, I am looking for the recorded % activity of the following sequence: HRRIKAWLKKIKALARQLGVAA (Mammal) [MMI-0500]
Ans: 92%

Q: # input sequence: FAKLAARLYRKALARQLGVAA [MMI-0300] ; wanted: its % activity
Ans: 98%

Q: Need % activity, item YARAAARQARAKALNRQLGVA (Mammal) [MMI-0200]
Ans: 91%

Let us move to another entry and its % activity.
Q: For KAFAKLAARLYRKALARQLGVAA [MMI-0400] , what is its reported % activity?
Ans: 94%
